Consider the following molecules; for each one, report its Growth inhibition (% of untreated control).
system: K562; test: Inhibition of growth in human erythroleukemia K-562 cells (% of untreated control); assay type: functional
// units = %; emit number, no label

Could you tell me which Growth inhibition (% of untreated control) is on file for `NC(=O)c1csc([C@@H]2O[C@H](COP(=O)(O)CP(=O)(O)OC[C@@H]3O[C@H](n4cnc5c(N)ncnc54)[C@@H](O)[C@H]3O)[C@@H](O)[C@H]2O)n1` ?
90

Could you tell me which Growth inhibition (% of untreated control) is on file for NC(=O)c1csc([C@@H]2O[C@H](CO)[C@@H](O)[C@H]2O)n1 [TIAZOFURIN] ?
90

Could you tell me which Growth inhibition (% of untreated control) is on file for `NC(=O)c1cccc([C@@H]2O[C@H](COP(=O)(O)CP(=O)(O)OC[C@@H]3O[C@H](n4cnc5c(N)ncnc54)[C@@H](O)[C@H]3O)[C@@H](O)[C@H]2O)c1` ?
90

Could you tell me which Growth inhibition (% of untreated control) is on file for `NC(=O)c1csc([C@H]2O[C@@H](COP(=O)(O)OP(=O)(O)OC[C@H]3O[C@@H](n4cnc5c(N)ncnc54)[C@H](O)[C@@H]3O)[C@H](O)[C@@H]2O)n1` ?
80

The values you see were collected from ChEMBL document CHEMBL1130411.
